Value source: patent US8546376B2

# SYSTEM TESTED: UniProt:Q9Y243
# Sequence (Q9Y243 whole entry): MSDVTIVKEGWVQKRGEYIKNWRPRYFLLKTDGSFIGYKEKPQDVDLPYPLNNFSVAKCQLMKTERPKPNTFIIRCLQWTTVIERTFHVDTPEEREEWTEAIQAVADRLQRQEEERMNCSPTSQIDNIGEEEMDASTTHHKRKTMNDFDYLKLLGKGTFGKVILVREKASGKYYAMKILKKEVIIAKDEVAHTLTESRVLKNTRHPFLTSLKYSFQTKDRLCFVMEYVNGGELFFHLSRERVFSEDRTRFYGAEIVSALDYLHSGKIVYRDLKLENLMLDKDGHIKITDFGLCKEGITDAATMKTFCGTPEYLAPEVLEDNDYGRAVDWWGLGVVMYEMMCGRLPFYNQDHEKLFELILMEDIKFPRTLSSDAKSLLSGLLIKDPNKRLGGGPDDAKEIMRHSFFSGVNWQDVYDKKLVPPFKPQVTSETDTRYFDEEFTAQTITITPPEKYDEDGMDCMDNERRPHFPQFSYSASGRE
# TEST METHOD NOTES: AKT Kinase Assay (IMAP fluorescent polarisation) vs AKT3
# STUDY CONDITIONS: activated AKT3, FAM Crosstide substrate
# Method: Testing of the compounds was performed using an AKT Kinase Assay: Activated AKT isoforms 1, 2 and 3 were assayed utilising a 5′ FAM Crosstide (Seq. GRPRTSSFAEG-OH). The extent of kinase phosphorylation was determined by fluorescent polarisation using IMAP progressive binding reagent, which introduces binding beads which allow the reagent to specifically bind to phosphate residues via covalent co-ordination complex bonds. […]
pIC50: −log10 of the molar value. Counter-ions that a name gives are not always drawn.
Field: pIC50. Provide a value for each of the molecules that follow.

Prompt: What measured pIC50 goes with Cn1nc2c3oc(-c4ccccc4)c(-c4ccc(C5(N)CCC5)cc4)c(=O)c3ccn2c1=O [Example 64, hydrochloride] ?
Completion: ≥ 6.00

Prompt: Then what about the molecule NC1(c2ccc(-c3c(-c4ccccc4)oc4c(N5CCOCC5)cccc4c3=O)cc2)CCC1 [Example 72, hydrochloride] ?
Completion: < 5.00

Prompt: Then what about the molecule `NC1(c2ccc(-c3c(-c4ccccc4)oc4c(-n5ccnc5)nccc4c3=O)cc2)CCC1` ?
Completion: < 5.00

Prompt: Then what about the molecule `NC1(c2ccc(-c3c(-c4ccccc4)oc4c(-c5cccc(F)c5C(=O)O)nccc4c3=O)cc2)CCC1` ?
Completion: < 5.00

Prompt: Then what about the molecule NC1(c2ccc(-c3c(-c4ccccc4)oc4c(=O)n(CCO)ccc4c3=O)cc2)CCC1 [Example 43, hydrochloride] ?
Completion: < 5.00

Prompt: Then what about the molecule NC1(c2ccc(-c3c(-c4ccccc4)oc4c(-n5ccccc5=O)nccc4c3=O)cc2)CCC1 [Example 104, hydrochloride] ?
Completion: < 5.00

Prompt: Then what about the molecule `NC1(c2ccc(-c3c(-c4ccccc4)oc4ccc(Br)cc4c3=O)cc2)CCC1` ?
Completion: 5.00 to 6.00

Prompt: Then what about the molecule NC1(c2ccc(-c3c(-c4ccccc4)oc4[nH]c(=O)ccc4c3=O)cc2)CCC1 [Example 36, hydrochloride] ?
Completion: < 5.00

Prompt: Then what about the molecule `Cc1nccc2c(=O)c(-c3ccc(C4(N)CCC4)cc3)c(-c3ccccc3)oc12` ?
Completion: < 5.00

Prompt: Then what about the molecule `COc1ccc2c(=O)c(-c3ccc(C4(N)CCC4)cc3)c(-c3ccccc3)oc2c1OC` ?
Completion: < 5.00

Prompt: Then what about the molecule `Cc1noc(C)c1-c1cccc2c(=O)c(-c3ccc(C4(N)CCC4)cc3)c(-c3ccccc3)oc12` ?
Completion: 5.00 to 6.00
